Tested on: Radical scavenging activity
Experiment: Antioxidant activity assessed as DPPH free radical scavenging activity
Type: functional
A collection of molecules and their measured IC50

O=c1c(O)c(-c2ccc(O)cc2)oc2cc(O)cc(O)c12 [KAEMPFEROL]	74.4 µg/mL
O=c1cc(-c2ccc(O)c(O)c2)oc2cc(O)cc(O)c12 [LUTEOLIN]	7.2 µg/mL
O=c1c(O[C@@H]2O[C@H](CO)[C@@H](O)[C@H](O)[C@H]2O)c(-c2ccc(O)cc2)oc2cc(O)cc(O)c12 [ASTRAGALIN]	> 100 µg/mL
O=C(O)c1cc(O)c(O)c(O)c1 [GALLIC ACID]	3.7 µg/mL
COc1c(O)cc2oc(-c3ccc(O)c(O)c3)c(O)c(=O)c2c1O [PATULETIN]	9 µg/mL

Report IC50, nothing else, for this molecule: COc1c(O)cc2oc(-c3ccc(O)c(O)c3)c(OC)c(=O)c2c1O [AXILLARIN]
12.4 µg/mL

Report IC50, nothing else, for this molecule: COc1c(O[C@@H]2O[C@H](COC(=O)C(C)C)[C@@H](O)[C@H](O)[C@H]2O)cc2oc(-c3ccc(O)c(O)c3)c(O)c(=O)c2c1O
14.3 µg/mL

Report IC50, nothing else, for this molecule: CCC(C)C(=O)OC[C@H]1O[C@@H](Oc2cc3oc(-c4ccc(O)c(O)c4)c(O)c(=O)c3c(O)c2OC)[C@H](O)[C@@H](O)[C@@H]1O (stereo partly drawn)
23.5 µg/mL

* * *

System: Radical scavenging activity
Assay: Antioxidant activity assessed as DPPH free radical scavenging activity
Type: functional
A collection of compounds and their measured IC50
Give your result in µg/mL as a bare value.

COc1c(O[C@@H]2O[C@H](CO)[C@@H](O)[C@H](O)[C@H]2O)cc2oc(-c3ccc(O)c(O)c3)c(O)c(=O)c2c1O	10.3

As a next step, examine the compound that follows.
Report IC50, nothing else, for this compound: COc1c(O[C@@H]2O[C@H](COC(=O)CC(C)C)[C@@H](O)[C@H](O)[C@H]2O)cc2oc(-c3ccc(O)c(O)c3)c(O)c(=O)c2c1O
14.3

All values here come from ChEMBL document CHEMBL1155654.
